Each recorded value in this set is attributed to ChEMBL document CHEMBL3877335.

molecular target: Matrix metalloproteinase-9 (Homo sapiens); assay: Inhibition of MMP-9 homodimerization in human T98G cells assessed as reduction in cell invasion at 5 to 25 nM measured after 24 hrs by p-formaldehyde/crystal violet staining based matrigel basement membrane transwell assay
Sequence (P14780 whole entry): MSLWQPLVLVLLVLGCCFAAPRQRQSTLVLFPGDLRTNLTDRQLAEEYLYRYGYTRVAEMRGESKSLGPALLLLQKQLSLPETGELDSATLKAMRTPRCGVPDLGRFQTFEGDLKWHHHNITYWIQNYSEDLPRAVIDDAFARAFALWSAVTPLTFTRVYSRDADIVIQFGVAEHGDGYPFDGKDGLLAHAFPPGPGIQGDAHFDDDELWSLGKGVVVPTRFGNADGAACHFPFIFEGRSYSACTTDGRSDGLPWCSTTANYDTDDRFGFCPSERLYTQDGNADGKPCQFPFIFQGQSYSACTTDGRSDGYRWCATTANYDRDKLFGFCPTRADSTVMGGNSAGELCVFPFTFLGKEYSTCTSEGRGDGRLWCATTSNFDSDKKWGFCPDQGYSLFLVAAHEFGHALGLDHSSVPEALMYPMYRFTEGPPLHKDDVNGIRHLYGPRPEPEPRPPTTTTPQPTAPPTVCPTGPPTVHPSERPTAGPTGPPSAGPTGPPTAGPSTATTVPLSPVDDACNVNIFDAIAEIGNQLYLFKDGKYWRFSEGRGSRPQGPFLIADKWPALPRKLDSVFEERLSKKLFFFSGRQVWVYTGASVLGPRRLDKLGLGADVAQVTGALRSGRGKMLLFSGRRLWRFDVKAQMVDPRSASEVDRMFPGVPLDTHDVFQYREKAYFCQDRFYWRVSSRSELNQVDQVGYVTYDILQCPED
Active and inactive are the calls of the source. The calls are words filed in the database; no cut-off is given here.
READOUT_NAME: inhibition

COMPOUND	EXPERIMENTAL_RESULT
CC(C)[C@H](C(=O)NO)N(CCNC(=O)c1ccccc1)S(=O)(=O)c1ccc(-c2ccccc2)cc1	Active
CC(C)[C@H](C(=O)O)N(CCNC(=O)c1cccc(C(=O)NCCN([C@@H](C(=O)O)C(C)C)S(=O)(=O)c2ccc(-c3ccccc3)cc2)c1)S(=O)(=O)c1ccc(-c2ccccc2)cc1	Active
CC(C)[C@H](C(=O)O)N(CCNC(=O)c1ccccc1)S(=O)(=O)c1ccc(-c2ccccc2)cc1	Active
CC(C)[C@H](C(=O)NO)N(CCNC(=O)c1cccc(C(=O)NCCN([C@@H](C(=O)NO)C(C)C)S(=O)(=O)c2ccc(-c3ccccc3)cc2)c1)S(=O)(=O)c1ccc(-c2ccccc2)cc1	Active

* * *

Target: Interstitial collagenase (Homo sapiens, UniProt P03956)
Sequence (P03956 whole entry): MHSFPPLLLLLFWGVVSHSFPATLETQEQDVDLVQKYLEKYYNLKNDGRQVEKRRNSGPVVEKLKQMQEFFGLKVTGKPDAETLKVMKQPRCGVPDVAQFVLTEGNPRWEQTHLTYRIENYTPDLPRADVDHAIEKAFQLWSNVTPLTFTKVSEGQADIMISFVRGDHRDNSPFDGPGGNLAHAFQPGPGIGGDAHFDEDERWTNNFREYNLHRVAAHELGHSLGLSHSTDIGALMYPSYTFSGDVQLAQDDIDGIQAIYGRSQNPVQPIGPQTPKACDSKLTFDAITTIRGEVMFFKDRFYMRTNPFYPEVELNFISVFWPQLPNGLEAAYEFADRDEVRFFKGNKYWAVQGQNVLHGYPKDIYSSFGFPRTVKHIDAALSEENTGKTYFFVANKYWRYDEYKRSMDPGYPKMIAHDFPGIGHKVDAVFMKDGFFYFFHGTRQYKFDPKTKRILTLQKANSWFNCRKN
Experiment: Inhibition of p-aminophenylmercuric acetate activated human rheumatoid synovial fibroblast MMP-1 pretreated for 4 hrs followed by Mca-Lys-Pro-Leu-Gly-Leu-Dap(Dnp)-Ala-Arg-NH2 fluorogenic substrate addition measured every 15 secs for 20 mins by fluorimetric assay
Documented pIC50 across a set of molecules
pIC50 here: minus log base 10 of the concentration, concentration in moles per litre.

COMPOUND	READOUT_NAME	EXPERIMENTAL_RESULT
CC(C)[C@H](C(=O)NO)N(CCNC(=O)c1ccccc1)S(=O)(=O)c1ccc(-c2ccccc2)cc1	pIC50	7.89
CC(C)[C@H](C(=O)O)N(CCNC(=O)c1ccccc1)S(=O)(=O)c1ccc(-c2ccccc2)cc1	pIC50	4.80
CC(C)[C@H](C(=O)O)N(CCNC(=O)c1cccc(C(=O)NCCN([C@@H](C(=O)O)C(C)C)S(=O)(=O)c2ccc(-c3ccccc3)cc2)c1)S(=O)(=O)c1ccc(-c2ccccc2)cc1	pIC50	4.93

Kindly consider the entry below.
Exam item: Interstitial collagenase (Homo sapiens, UniProt P03956) / pIC50 / CC(C)[C@H](C(=O)NO)N(CCNC(=O)c1cccc(C(=O)NCCN([C@@H](C(=O)NO)C(C)C)S(=O)(=O)c2ccc(-c3ccccc3)cc2)c1)S(=O)(=O)c1ccc(-c2ccccc2)cc1 : value?
Marked response: 6.55

* * *

target: UniProt P03956; experiment: Inhibition of p-aminophenylmercuric acetate activated human rheumatoid synovial fibroblast MMP-1 pretreated for 4 hrs followed by Mca-Lys-Pro-Leu-Gly-Leu-Dap(Dnp)-Ala-Arg-NH2 fluorogenic substrate addition measured every 15 secs for 20 mins by fluorimetric assay
Documented pIC50 across a set of compounds
pIC50 here: minus log base 10 of the concentration, concentration in moles per litre.

COMPOUND	TEST_SYSTEM	EXPERIMENTAL_RESULT
CC(C)[C@H](C(=O)O)N(CCNC(=O)c1cccc(C(=O)NCCN([C@@H](C(=O)N(C)C)C(C)C)S(=O)(=O)c2ccc(-c3ccccc3)cc2)c1)S(=O)(=O)c1ccc(-c2ccccc2)cc1	UniProt P03956	5.69

Exam item: UniProt P03956 / pIC50 / CC(C)[C@H](C(=O)NO)N(CCNC(=O)c1cccc(C(=O)NCCN([C@@H](C(=O)N(C)C)C(C)C)S(=O)(=O)c2ccc(-c3ccccc3)cc2)c1)S(=O)(=O)c1ccc(-c2ccccc2)cc1 : value?
Marked response: 5.80

Exam item: UniProt P03956 / pIC50 / CC(C)ON([C@H](CCNC(=O)CCCNC(=O)c1cccc(C(=O)NCCCC(=O)NCC[C@H](C(=O)NO)N(OC(C)C)S(=O)(=O)c2ccc(-c3ccccc3)cc2)c1)C(=O)NO)S(=O)(=O)c1ccc(-c2ccccc2)cc1 : value?
Marked response: 5.28

* * *

Documented IC50 across a set of molecules
target: 72 kDa type IV collagenase (Homo sapiens, UniProt P08253); experiment: Inhibition of p-aminophenylmercuric acetate activated recombinant human MMP-2 expressed in CHO cells pretreated for 4 hrs followed by Mca-Lys-Pro-Leu-Gly-Leu-Dap(Dnp)-Ala-Arg-NH2 fluorogenic substrate addition measured every 15 secs for 20 mins by fluorimetric assay
Sequence (P08253 whole entry): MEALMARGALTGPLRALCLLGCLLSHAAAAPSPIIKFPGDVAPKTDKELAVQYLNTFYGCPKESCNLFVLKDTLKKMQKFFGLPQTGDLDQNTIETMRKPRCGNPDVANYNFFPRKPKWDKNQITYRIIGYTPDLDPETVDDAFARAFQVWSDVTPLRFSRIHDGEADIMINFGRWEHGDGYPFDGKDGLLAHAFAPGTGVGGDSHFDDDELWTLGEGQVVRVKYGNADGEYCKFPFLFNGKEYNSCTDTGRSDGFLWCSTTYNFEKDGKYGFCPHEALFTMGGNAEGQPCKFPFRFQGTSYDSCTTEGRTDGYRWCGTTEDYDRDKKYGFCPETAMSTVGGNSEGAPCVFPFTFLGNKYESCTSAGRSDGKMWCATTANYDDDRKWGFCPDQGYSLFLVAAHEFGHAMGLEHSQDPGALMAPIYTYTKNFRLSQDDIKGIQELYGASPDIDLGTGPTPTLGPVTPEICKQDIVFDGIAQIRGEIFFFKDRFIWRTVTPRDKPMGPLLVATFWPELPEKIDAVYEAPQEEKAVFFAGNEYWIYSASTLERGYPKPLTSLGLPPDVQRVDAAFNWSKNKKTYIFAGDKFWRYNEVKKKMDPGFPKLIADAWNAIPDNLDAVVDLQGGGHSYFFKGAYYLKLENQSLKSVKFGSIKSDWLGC
Lab book: enter the figure in nM, no units written.

Consider the following illustrative entries.
COMPOUND	READOUT_NAME	EXPERIMENTAL_RESULT
CC(C)[C@H](C(=O)NO)N(CCNC(=O)c1ccccc1)S(=O)(=O)c1ccc(-c2ccccc2)cc1	IC50	0.16
CC(C)[C@H](C(=O)O)N(CCNC(=O)c1cccc(C(=O)NCCN([C@@H](C(=O)O)C(C)C)S(=O)(=O)c2ccc(-c3ccccc3)cc2)c1)S(=O)(=O)c1ccc(-c2ccccc2)cc1	IC50	63

Kindly consider the entry below.
Exam item: # lookup: IC50 of CC(C)[C@H](C(=O)NO)N(CCNC(=O)c1cccc(C(=O)NCCN([C@@H](C(=O)NO)C(C)C)S(=O)(=O)c2ccc(-c3ccccc3)cc2)c1)S(=O)(=O)c1ccc(-c2ccccc2)cc1
Marked response: 10

* * *

target: Matrix metalloproteinase-14 (Homo sapiens); assay: Inhibition of recombinant human MMP-14 catalytic domain pretreated for 4 hrs followed by Mca-Lys-Pro-Leu-Gly-Leu-Dap(Dnp)-Ala-Arg-NH2 fluorogenic substrate addition measured every 15 secs for 20 mins by fluorimetric assay
READOUT_NAME: IC50 (nM)
Lab book: enter the figure in nM, no units written.

Consider the following illustrative entries.
COMPOUND	READOUT_NAME	EXPERIMENTAL_RESULT
CC(C)[C@H](C(=O)NO)N(CCNC(=O)c1cccc(C(=O)NCCN([C@@H](C(=O)N(C)C)C(C)C)S(=O)(=O)c2ccc(-c3ccccc3)cc2)c1)S(=O)(=O)c1ccc(-c2ccccc2)cc1	IC50	900
CC(C)[C@H](C(=O)O)N(CCNC(=O)c1cccc(C(=O)NCCN([C@@H](C(=O)N(C)C)C(C)C)S(=O)(=O)c2ccc(-c3ccccc3)cc2)c1)S(=O)(=O)c1ccc(-c2ccccc2)cc1	IC50	850
CC(C)[C@H](C(=O)O)N(CCNC(=O)c1cccc(C(=O)NCCN([C@@H](C(=O)O)C(C)C)S(=O)(=O)c2ccc(-c3ccccc3)cc2)c1)S(=O)(=O)c1ccc(-c2ccccc2)cc1	IC50	2200
CC(C)[C@H](C(=O)NO)N(CCNC(=O)c1ccccc1)S(=O)(=O)c1ccc(-c2ccccc2)cc1	IC50	23
CC(C)ON([C@H](CCNC(=O)CCCNC(=O)c1cccc(C(=O)NCCCC(=O)NCC[C@H](C(=O)NO)N(OC(C)C)S(=O)(=O)c2ccc(-c3ccccc3)cc2)c1)C(=O)NO)S(=O)(=O)c1ccc(-c2ccccc2)cc1	IC50	116

Exam item: # lookup: IC50 of CC(C)[C@H](C(=O)NO)N(CCNC(=O)c1cccc(C(=O)NCCN([C@@H](C(=O)NO)C(C)C)S(=O)(=O)c2ccc(-c3ccccc3)cc2)c1)S(=O)(=O)c1ccc(-c2ccccc2)cc1
Marked response: 250

Exam item: # lookup: IC50 of CC(C)[C@H](C(=O)O)N(CCNC(=O)c1ccccc1)S(=O)(=O)c1ccc(-c2ccccc2)cc1
Marked response: 1830

* * *

target: 72 kDa type IV collagenase (Homo sapiens, UniProt P08253); assay: Inhibition of p-aminophenylmercuric acetate activated recombinant human MMP-2 expressed in CHO cells pretreated for 4 hrs followed by Mca-Lys-Pro-Leu-Gly-Leu-Dap(Dnp)-Ala-Arg-NH2 fluorogenic substrate addition measured every 15 secs for 20 mins by fluorimetric assay
READOUT_NAME: IC50 (µM)
Lab book: enter the figure in µM, no units written.

COMPOUND	IC50 / µM
CC(C)[C@H](C(=O)O)N(CCNC(=O)c1ccccc1)S(=O)(=O)c1ccc(-c2ccccc2)cc1	0.17

Exam item: # lookup: IC50 of CC(C)[C@H](C(=O)O)N(CCNC(=O)c1cccc(C(=O)NCCN([C@@H](C(=O)N(C)C)C(C)C)S(=O)(=O)c2ccc(-c3ccccc3)cc2)c1)S(=O)(=O)c1ccc(-c2ccccc2)cc1
Marked response: 0.11

Exam item: # lookup: IC50 of CC(C)[C@H](C(=O)NO)N(CCNC(=O)c1cccc(C(=O)NCCN([C@@H](C(=O)N(C)C)C(C)C)S(=O)(=O)c2ccc(-c3ccccc3)cc2)c1)S(=O)(=O)c1ccc(-c2ccccc2)cc1
Marked response: 0.107

Exam item: # lookup: IC50 of CC(C)ON([C@H](CCNC(=O)CCCNC(=O)c1cccc(C(=O)NCCCC(=O)NCC[C@H](C(=O)NO)N(OC(C)C)S(=O)(=O)c2ccc(-c3ccccc3)cc2)c1)C(=O)NO)S(=O)(=O)c1ccc(-c2ccccc2)cc1
Marked response: 0.02
